Target: Glutathione peroxidase 1 (Homo sapiens) (UniProt P07203)
Sequence (P07203 whole entry, looked up): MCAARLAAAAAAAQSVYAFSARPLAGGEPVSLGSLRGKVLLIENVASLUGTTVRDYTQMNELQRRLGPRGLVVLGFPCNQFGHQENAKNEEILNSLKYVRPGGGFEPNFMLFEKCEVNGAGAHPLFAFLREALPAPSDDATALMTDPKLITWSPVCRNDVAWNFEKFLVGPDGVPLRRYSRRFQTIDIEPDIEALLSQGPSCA
Assay: Primary qHTS Assay for Inhibitors of Recombinant Selenoprotein Glutathione Peroxidase 1 (GPX1) (AID 1845191); further: nearly all actives have a fitted effect of over 65% in size
Settings: recombinant GPX1, GR-coupled NADPH fluorescence, 15 min; series mostly up to 27.7 µM
Inconclusive results are not listed. Calls of active or inactive are those of the source. The call rests on the fitted dose curve; in most records, active means well fitted inhibition curve with a large enough effect; inconclusive means small, poorly fitted or top-dose-only effect; inactive means flat fitted curve, though single readings scatter.
measuredProperty: outcome

COC(=O)[C@@H](NC(=O)[C@H](CC(C)C)NC(=O)N(Cc1ccccc1)C[C@@H](O)[C@H](Cc1ccccc1)NC(=O)OC(C)(C)C)C(C)C; inactive
COC(=O)C1=CO[C@@H](O[C@@H]2O[C@H](CO)[C@@H](O)[C@H](O)[C@H]2O)[C@@H]2C(C)CC(=O)[C@]12O (stereo partly drawn); inactive
O=C(/C=C/c1ccc(O)cc1)O[C@H]1[C@H](OC2CCCCC2O)O[C@H](CO)[C@@H](O)[C@@H]1O (stereo partly drawn); inactive
C=C1CC2C(C)(CCC(=O)O)C(C(C)(C)O)CCC2(C)C2(C(=O)OC)C(=O)C(C)(O)C(=O)C12C (stereo not drawn); inactive
COc1cccc(C)c1C(=O)O[C@@H]1C[C@H](O[C@H]2[C@H](O)C[C@H](O[C@@H]3CCC[C@H]4[C@H]3C=C[C@@H]3CCCC/C=C/[C@H]5C=C(C(=O)O)[C@@H](C)C[C@@]56OC(=O)C(=C6O)OC(=O)[C@@]34C)O[C@@H]2C)O[C@H](C)[C@H]1O; inactive

Param item = COc1cc(/C=C/C(=O)O[C@H]2[C@@H]3C=CO[C@@H](O[C@@H]4O[C@H](CO)[C@@H](O)[C@H](O)[C@H]4O)[C@@H]3[C@@]3(CO)O[C@@H]23)ccc1O ; retrieve measured outcome.
inactive

Param item = OC[C@H]1O[C@@H](OCCc2ccccc2)[C@H](O)[C@@H](O)[C@@H]1O ; retrieve measured outcome.
inactive

Param item = Cc1onc(-c2c(Cl)cccc2Cl)c1CC(=O)NCc1ccc(OCC(F)(F)F)nc1 ; retrieve measured outcome.
inactive

Param item = C=C1CC[C@@]2(OC1)O[C@H]1CC3[C@@H]4CC=C5C[C@H](O[C@H]6OC[C@@H](O)C(O)[C@@H]6O[C@@H]6O[C@@H](C)[C@H](O)[C@@H](O[C@@H]7O[C@H](CO)[C@@H](O)[C@H](O)[C@H]7O)[C@H]6O)C[C@@H](O)[C@]5(C)C4CC[C@]3(C)[C@H]1[C@@H]2C (stereo partly drawn) ; retrieve measured outcome.
inactive

Param item = COC1OC(OC)C(O)(CCC2(C)C(C)CCC3(C)C2CC(O)C(O)C32CO2)C1O (stereo not drawn) ; retrieve measured outcome.
inactive

Param item = CC(C)=C1CC2C(CCC2(C)O)C(C)(O)CC1=O (stereo not drawn) ; retrieve measured outcome.
inactive

Param item = C=C1CC[C@@H]2[C@](C)(CO)[C@H](O[C@@H]3O[C@H](CO)[C@@H](O)[C@H](O)[C@H]3O)CC[C@@]2(C)[C@@H]1C/C=C1/C(=O)OC[C@H]1O ; retrieve measured outcome.
inactive

Param item = C/C=C/C(=O)OC1/C=C/C(O)C(OC(C)=O)CCC(=O)OC1C (stereo not drawn) ; retrieve measured outcome.
inactive

----------
System: Zika virus NS2B-NS3 protease (unlinked complex)
Assay: Primary screen GU Rhodamine qHTS for Zika virus inhibitors: Unlinked NS2B-NS3 protease assay (AID 1347159); further: on the % scale 0 is the no-effect control and ±100 the full control effect; nearly all actives have a fitted effect of over 60% in size
Conditions: Recombinant ZIKV NS2B-NS3 protease, Rhodamine110 substrate fluorescence; series mostly up to 107 µM
Records with an inconclusive call do not appear. The source made the active and inactive calls. Calls follow the shape of the dose curve; as a rule, active = well fitted inhibition curve with a large enough effect; inconclusive = small, poorly fitted or top-dose-only effect; inactive = no such curve, though single readings can be large or run the other way.
Response enum: Yes = active, No = inactive

Name the outcome recorded for CC(=O)/C=C/[C@H]1[C@](C)(O)[C@@H](O)[C@H](O)C2C(C)(C)CCC[C@@]21C (stereo partly drawn) in the assay.
No

----------
System: KB-3-1
Assay: Cytotoxic Profiling of Annotated Libraries Using Quantitative High-Throughput Screening (AID 1296008); further: on the % scale 0 is the no-effect control and ±100 the full control effect; nearly all actives have a fitted effect of over 60% in size
Conditions: Five cell lines viability, CellTiter-Glo ATP luminescence, 48-72 h; stronger effect = lower value
Inconclusive results are not listed.
Entries and their measured max response follow.
Number in %, nothing else.

C/C(=C/CO)CC[C@H]1[C@]2(C)C[C@H](O)CC(C)(C)[C@H]2CC[C@]1(C)O; 3.57
CCCCOc1nc(N)c2c(n1)N(Cc1cccc(CN3CCCC3)c1)CC(=O)N2; -3.08
CC1CC(=O)[C@]2(O)C(C(=O)OCCc3ccc(O)c(O)c3)=CO[C@@H](O[C@@H]3O[C@H](CO)[C@@H](O)[C@H](O)[C@H]3O)[C@H]12 (stereo not given in full); 8.6
CC(=O)OCC(Cc1ccccc1)NC(=O)C(Cc1ccccc1)NC(=O)c1ccccc1 (stereo not given); -0.456

Param item = Cc1c(Cc2ccc3ccccc3n2)c2cc(F)ccc2n1CC(=O)O ; retrieve measured max response.
7.66

----------
Assay: Primary fluorescence-based thiol-reactive (MSTI) qHTS assay for identification of artifact compounds. (AID 1845221); further: nearly all actives have a fitted effect of over 65% in size
Details: MSTI thiol-reactivity probe, 1 h; series mostly up to 53.8 µM
Results filed as inconclusive are left out. Calls of active or inactive are those of the source. Calls follow the shape of the dose curve; as a rule, active = well fitted inhibition curve with a large enough effect; inconclusive = small, poorly fitted or top-dose-only effect; inactive = no such curve, though single readings can be large or run the other way. Where a SMILES comes first, the peptide text is derived from it. The star is where a group is joined. PhAc = O=C(Cc1ccccc1)*
Response enum: active, inactive

Consider the worked cases shown below.
CCOC(=O)CNC(=O)[C@@H]1CCCN1C(=O)Cc1ccccc1 (PhAc-Pro-Gly-OEt); inactive
CC[C@@H](C)[C@H](N)C(=O)N1Cc2ccccc2C1; inactive
CNc1nc(Nc2cn(C(C)(C)C#N)nc2C)ncc1C(F)(F)F; inactive
C[C@H]1/C=C/C=C/C=C/C=C/C=C/[C@@H](O)[C@H](C(=O)O)[C@H](O)C[C@H](O)CCC[C@H](O)C[C@H](O)C[C@H](O)[C@@H](C)C(=O)O[C@@H]1C; inactive

Name the outcome recorded for CC(C)(C)NS(=O)(=O)c1ccc(-c2ccc3[nH]nc(N)c3c2)cc1 in the assay.
active

Name the outcome recorded for C/C=C(\C)C(=O)OC1C2(O)CC3=C4CC(=O)OC(c5ccoc5)C4(C)CCC3C(C)(C2=O)C(C(OC(C)=O)C(=O)OC)C1(C)C (stereo unspecified) in the assay.
inactive

Name the outcome recorded for CC(C)c1ccc2c(c1)C(O)CC1C(C)(C(=O)O)CCCC21C (stereo unspecified) in the assay.
inactive

Name the outcome recorded for O=C(OC[C@H]1O[C@H](O[C@]2(CO)O[C@H](CO)[C@@H](O)[C@@H]2O)[C@H](O)[C@@H](O)[C@@H]1O)c1ccc(O)cc1 in the assay.
inactive

Name the outcome recorded for CC1=C2C[C@@]3(C)[C@@H](CCC[C@@H]3C)C[C@@]2(O)OC1=O in the assay.
inactive

Name the outcome recorded for O=C(O)CC(CCc1ccccc1)OC1OC(CO)C(O)C(O)C1O (stereo unspecified) in the assay.
active

Name the outcome recorded for C=C(C)[C@@H]1CC[C@]2(C)CC[C@]3(C)C(CCC4[C@@]5(C)CC[C@H](O)C(C)(C)C5CC[C@]43C)C12 (stereo partly specified) in the assay.
inactive

Name the outcome recorded for C=C(C)[C@@]1(O)C[C@@]2(C)C(=CC1=O)CC[C@@H](O)[C@@H]2C in the assay.
inactive

Name the outcome recorded for COc1ccccc1CN[C@H]1CCCN[C@H]1c1ccccc1 in the assay.
inactive

Name the outcome recorded for C=C1CC[C@@]2(OC1)O[C@H]1CC3[C@@H]4CC=C5C[C@@H](O)C[C@@H](O[C@@H]6OC[C@H](O)[C@H](O)[C@H]6O[C@@H]6O[C@@H](C)[C@H](O)[C@@H](O)[C@H]6O)[C@]5(C)C4CC[C@]3(C)[C@H]1[C@@H]2C (stereo partly specified) in the assay.
inactive

Name the outcome recorded for CC1(C)C=Cc2c(ccc3c2[N+]([O-])=C2C3(O)CC34NC(=O)C5(CCCN5C3=O)CC4C2(C)C)O1 (stereo unspecified) in the assay.
active

Name the outcome recorded for C=C(C)[C@@H]1CC[C@]2(C(=O)O)CC[C@]3(C)C(CCC4[C@]5(C)C(CC[C@]43C)C(C)(C)[C@@H](O)[C@@H]5C(=O)O)C12 (stereo partly specified) in the assay.
inactive

----------
Target: Glutathione peroxidase 1 (Homo sapiens)
Assay: Primary qHTS Assay for Inhibitors of Recombinant Selenoprotein Glutathione Peroxidase 1 (GPX1) (AID 1845191); further: nearly all actives have a fitted effect of over 65% in size
Conditions: recombinant GPX1, GR-coupled NADPH fluorescence, 15 min; series mostly up to 27.7 µM
Results filed as inconclusive are left out. Activity calls are given as the source filed them. Calls come from the whole dose curve; as a rule, active = well fitted inhibition curve with a large enough effect; inconclusive = small, poorly fitted or top-dose-only effect; inactive = flat fitted curve, though single readings scatter.
Response enum: active, inactive

Name the outcome recorded for O=C(Nc1cc(-c2ccccc2)nn1-c1ccccc1)c1ccc([N+](=O)[O-])cc1 in the assay.
inactive

Name the outcome recorded for CC1=C(C(=O)OC2OC(COC3OC(CO)C(O)C(O)C3O)C(O)C(O)C2O)C(C)(C)CCC1 (configuration not stated) in the assay.
inactive

These entries and their values trace back to PubChem BioAssay (NCATS).
